# System: foxtail, green (green foxtail, Setaria viridis)
# METHOD_SUMMARY: Test A preemergence, green foxtail
# Assay type: in vivo
# MEASUREMENT_CONDITIONS: 31 g ai/ha, 0 to 100 scale (0 no effect, 100 complete control), approx. 10 d
Hi! Could you tag entries with Plant response rating, Foxtail, Green below 70 as criterion met, and those at or above as criterion not met? Much appreciated.

Solved cases (3 shown):
COMPOUND: CC(=O)OC[C@@]1(C(=O)Nc2cccc(F)c2F)C(=O)N(C)C[C@@H]1c1ccc(C(F)(F)F)cc1
LABEL: criterion met
//
COMPOUND: CCNC(=O)C1(C(=O)Nc2cccc(F)c2F)C(=O)N(C)CC1c1ccc(C(F)(F)F)cc1 (stereo not shown)
LABEL: criterion met
//
COMPOUND: CN1C[C@H](c2ccc(C(F)(F)F)cc2)[C@](CO)(C(=O)Nc2cccc(F)c2F)C1=O
LABEL: criterion met

[ask] A record lists CN(C)CC1(C(=O)Nc2cccc(F)c2F)C(=O)N(C)CC1c1ccc(C(F)(F)F)cc1 (stereo not shown) . Is its Plant response rating, Foxtail, Green below 70?
[reply] criterion not met

[ask] A record lists `CC(=O)[C@@]1(C(=O)Nc2cccc(F)c2F)C(=O)N(C)C[C@@H]1c1ccc(C(F)(F)F)cc1` . Is its Plant response rating, Foxtail, Green below 70?
[reply] criterion not met

[ask] A record lists CC(C)NC(=O)C1(C(=O)Nc2cccc(F)c2F)C(=O)N(C)CC1c1ccc(C(F)(F)F)cc1 (stereo not shown) . Is its Plant response rating, Foxtail, Green below 70?
[reply] criterion met

* * *

# System: barnyardgrass (Echinochloa crus-galli)
# METHOD_SUMMARY: Test A preemergence, barnyardgrass
# Format: in vivo
# MEASUREMENT_CONDITIONS: 31 g ai/ha, 0 to 100 scale (0 no effect, 100 complete control), approx. 10 d
Short version: Plant response rating, Barnyardgrass at least 50 is criterion met, less is criterion not met.

COMPOUND: CN1C[C@H](c2ccc(C(F)(F)F)cc2)[C@](CO)(C(=O)Nc2cccc(F)c2F)C1=O [Compound 4]
LABEL: criterion not met

COMPOUND: CN(C)CC1(C(=O)Nc2cccc(F)c2F)C(=O)N(C)CC1c1ccc(C(F)(F)F)cc1 (stereo not shown) [Compound 9]
LABEL: criterion met

COMPOUND: CC(=O)[C@@]1(C(=O)Nc2cccc(F)c2F)C(=O)N(C)C[C@@H]1c1ccc(C(F)(F)F)cc1 [Compound 1]
LABEL: criterion met

[ask] Identify whether the reported Plant response rating, Barnyardgrass of the following compound is 50 or greater: CN1C[C@H](c2ccc(C(F)(F)F)cc2)[C@@](CO)(C(=O)Nc2cccc(F)c2F)C1=O [Compound 5]
[reply] criterion met

[ask] Identify whether the reported Plant response rating, Barnyardgrass of the following compound is 50 or greater: CCNC(=O)C1(C(=O)Nc2cccc(F)c2F)C(=O)N(C)CC1c1ccc(C(F)(F)F)cc1 (stereo not shown) [Compound 7]
[reply] criterion not met

[ask] Identify whether the reported Plant response rating, Barnyardgrass of the following compound is 50 or greater: CC(C)NC(=O)C1(C(=O)Nc2cccc(F)c2F)C(=O)N(C)CC1c1ccc(C(F)(F)F)cc1 (stereo not shown) [Compound 8]
[reply] criterion not met

* * *

Give Plant response rating, Ragweed for every item shown.
# System: ragweed (common ragweed, Ambrosia elatior)
# METHOD_SUMMARY: Test A preemergence, ragweed
# Format: in vivo
# MEASUREMENT_CONDITIONS: 31 g ai/ha, 0 to 100 scale (0 no effect, 100 complete control), approx. 10 d
One number for each entry.

COMPOUND: CN1C[C@H](c2ccc(C(F)(F)F)cc2)[C@@](CO)(C(=O)Nc2cccc(F)c2F)C1=O [Compound 5]
MEASURED_ON: ragweed (common ragweed, Ambrosia elatior)
Plant response rating, Ragweed: 0
--
COMPOUND: CN(C)CC1(C(=O)Nc2cccc(F)c2F)C(=O)N(C)CC1c1ccc(C(F)(F)F)cc1 (stereo not shown) [Compound 9]
MEASURED_ON: ragweed (common ragweed, Ambrosia elatior)
Plant response rating, Ragweed: 0
--
COMPOUND: CC(=O)OC[C@@]1(C(=O)Nc2cccc(F)c2F)C(=O)N(C)C[C@@H]1c1ccc(C(F)(F)F)cc1 [Compound 2]
MEASURED_ON: ragweed (common ragweed, Ambrosia elatior)
Plant response rating, Ragweed: 0

Now for a further compound.
[ask] So what's the measured Plant response rating, Ragweed for this one? CC(=O)[C@@]1(C(=O)Nc2cccc(F)c2F)C(=O)N(C)C[C@@H]1c1ccc(C(F)(F)F)cc1 [Compound 1]
[reply] 20

* * *

# Test system: foxtail, green (green foxtail, Setaria viridis)
# METHOD_SUMMARY: Test A postemergence, green foxtail
# Type: in vivo
# MEASUREMENT_CONDITIONS: 31 g ai/ha, 0 to 100 scale (0 no effect, 100 complete control), approx. 10 d
PARAMETER: Plant response rating, Foxtail, Green

Solved entries:
MOLECULE: CN1C[C@H](c2ccc(C(F)(F)F)cc2)[C@](CO)(C(=O)Nc2cccc(F)c2F)C1=O
RESULT: 10

MOLECULE: CN(C)CC1(C(=O)Nc2cccc(F)c2F)C(=O)N(C)CC1c1ccc(C(F)(F)F)cc1 (stereo not shown)
RESULT: 50

Look up Plant response rating, Foxtail, Green for the entries below, preserving their order.
1. CCNC(=O)C1(C(=O)Nc2cccc(F)c2F)C(=O)N(C)CC1c1ccc(C(F)(F)F)cc1 (stereo not shown)
2. CC(C)NC(=O)C1(C(=O)Nc2cccc(F)c2F)C(=O)N(C)CC1c1ccc(C(F)(F)F)cc1 (stereo not shown)

[reply]
0
0

* * *

# Tested on: ducksalad (Heteranthera limosa)
# METHOD_SUMMARY: Test B flooded paddy test, ducksalad
# Format: in vivo
# MEASUREMENT_CONDITIONS: Flood, 250 g ai/ha; applied to paddy water at 2-leaf stage; visual rating after 13 to 15 d; scale 0 to 100, 0 is no effect, 100 is complete control
PARAMETER: Plant response rating, Ducksalad
One number for each entry.

Look up Plant response rating, Ducksalad for the entries below, preserving their order.
1. CN1C[C@H](c2ccc(C(F)(F)F)cc2)[C@@](CO)(C(=O)Nc2cccc(F)c2F)C1=O
2. CCNC(=O)C1(C(=O)Nc2cccc(F)c2F)C(=O)N(C)CC1c1ccc(C(F)(F)F)cc1 (stereo not shown)

[reply]
[90, 75]

Look up Plant response rating, Ducksalad for the entries below, preserving their order.
1. CC(C)NC(=O)C1(C(=O)Nc2cccc(F)c2F)C(=O)N(C)CC1c1ccc(C(F)(F)F)cc1 (stereo not shown)
2. CC(=O)OC[C@@]1(C(=O)Nc2cccc(F)c2F)C(=O)N(C)C[C@@H]1c1ccc(C(F)(F)F)cc1
3. CN(C)CC1(C(=O)Nc2cccc(F)c2F)C(=O)N(C)CC1c1ccc(C(F)(F)F)cc1 (stereo not shown)
4. CC(=O)[C@@]1(C(=O)Nc2cccc(F)c2F)C(=O)N(C)C[C@@H]1c1ccc(C(F)(F)F)cc1
5. CN1C[C@H](c2ccc(C(F)(F)F)cc2)[C@](CO)(C(=O)Nc2cccc(F)c2F)C1=O

[reply]
1. 0
2. 95
3. 95
4. 90
5. 95

* * *

Give Plant response rating, Galium for every item shown.
# Test system: galium (catchweed bedstraw, Galium aparine)
# METHOD_SUMMARY: Test A postemergence, galium
# Type: in vivo
# MEASUREMENT_CONDITIONS: 125 g ai/ha, 0 to 100 scale (0 no effect, 100 complete control), approx. 10 d

Solved entries:
COMPOUND: CN1C[C@H](c2ccc(C(F)(F)F)cc2)[C@@](CO)(C(=O)Nc2cccc(F)c2F)C1=O
RESULT: 40
--
COMPOUND: CN1C[C@H](c2ccc(C(F)(F)F)cc2)[C@](CO)(C(=O)Nc2cccc(F)c2F)C1=O
RESULT: 40
--
COMPOUND: CC(C)NC(=O)C1(C(=O)Nc2cccc(F)c2F)C(=O)N(C)CC1c1ccc(C(F)(F)F)cc1 (stereo not shown)
RESULT: 0
--
COMPOUND: CC(=O)[C@@]1(C(=O)Nc2cccc(F)c2F)C(=O)N(C)C[C@@H]1c1ccc(C(F)(F)F)cc1
RESULT: 60
--
COMPOUND: CN(C)CC1(C(=O)Nc2cccc(F)c2F)C(=O)N(C)CC1c1ccc(C(F)(F)F)cc1 (stereo not shown)
RESULT: 60

Look up Plant response rating, Galium for the entries below, preserving their order.
1. CCNC(=O)C1(C(=O)Nc2cccc(F)c2F)C(=O)N(C)CC1c1ccc(C(F)(F)F)cc1 (stereo not shown)
2. CC(=O)OC[C@@]1(C(=O)Nc2cccc(F)c2F)C(=O)N(C)C[C@@H]1c1ccc(C(F)(F)F)cc1

[reply]
1: 30; 2: 40

* * *

# System: pigweed (Amaranthus retroflexus)
# METHOD_SUMMARY: Test A preemergence, pigweed
# Type: in vivo
# MEASUREMENT_CONDITIONS: 31 g ai/ha, 0 to 100 scale (0 no effect, 100 complete control), approx. 10 d
# Excerpt: Seeds of plant species selected from barnyardgrass (Echinochloa crus-galli), kochia (Kochia scoparia), ragweed (common ragweed, Ambrosia elatior), ryegrass, Italian (Italian ryegrass, Lolium multiflorum), foxtail, green (green foxtail, Setaria viridis), and pigweed (Amaranthus retroflexus) were planted into a blend of loam soil and sand and treated preemergence with a directed soil spray using test chemicals formulated in a non-phytotoxic solvent mixture which included a surfactant. […]
PARAMETER: Plant response rating, Pigweed
One number for each entry.

Solved entries:
MOLECULE: CN(C)CC1(C(=O)Nc2cccc(F)c2F)C(=O)N(C)CC1c1ccc(C(F)(F)F)cc1 (stereo not drawn)
Plant response rating, Pigweed: 70

MOLECULE: CC(=O)[C@@]1(C(=O)Nc2cccc(F)c2F)C(=O)N(C)C[C@@H]1c1ccc(C(F)(F)F)cc1
Plant response rating, Pigweed: 50

Now for a further molecule.
[ask] So what's the measured Plant response rating, Pigweed for this one? CCNC(=O)C1(C(=O)Nc2cccc(F)c2F)C(=O)N(C)CC1c1ccc(C(F)(F)F)cc1 (stereo not drawn)
[reply] 0

Recorded values, source patent US11019818B2.
